value type: pIC50
Units for pIC50: none; it is -log10 of a concentration expressed in mol/L.

Q: Entry Oc1ccc(C(c2ccc(O)cc2)(C(F)(F)F)C(F)(F)F)cc1 , system zfERβ1 (Danio rerio, UniProt Q5PR29): what pIC50 was measured?
Result: 6.18

###

- test target: zfERα (Danio rerio)
- Sequence (P57717 whole entry): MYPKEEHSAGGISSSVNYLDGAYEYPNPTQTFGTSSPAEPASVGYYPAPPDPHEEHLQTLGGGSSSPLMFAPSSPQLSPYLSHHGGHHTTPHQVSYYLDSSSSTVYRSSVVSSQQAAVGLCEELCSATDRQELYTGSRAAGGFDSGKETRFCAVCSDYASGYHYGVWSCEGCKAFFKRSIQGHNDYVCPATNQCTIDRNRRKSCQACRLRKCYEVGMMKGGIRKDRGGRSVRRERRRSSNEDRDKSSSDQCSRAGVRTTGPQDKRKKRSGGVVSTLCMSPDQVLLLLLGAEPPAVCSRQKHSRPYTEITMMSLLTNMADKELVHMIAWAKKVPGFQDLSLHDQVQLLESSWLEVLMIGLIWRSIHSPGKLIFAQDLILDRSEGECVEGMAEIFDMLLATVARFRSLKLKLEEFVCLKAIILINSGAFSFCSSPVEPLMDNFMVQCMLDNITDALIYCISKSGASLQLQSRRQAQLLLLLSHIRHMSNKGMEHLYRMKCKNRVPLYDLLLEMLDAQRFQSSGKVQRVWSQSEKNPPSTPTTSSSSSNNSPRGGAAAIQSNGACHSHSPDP
Please respond with reported pIC50 for every item in the list.
Quick note: pIC50 values are minus log10 of concentrations in mol/L.

Q: Tell me the measured pIC50 of Oc1ccc(C(c2ccc(O)cc2)(C(F)(F)F)C(F)(F)F)cc1 , please.
Result: 7.12

Q: Give its pIC50 value. Item: CC(C)(c1ccc(O)cc1)c1ccc(O)cc1 [BPA, 2,2-bis(4-hydroxyphenyl)propane, reference compound]
Result: 5.55

Q: Name the reported pIC50 value associated with the compound Oc1ccc(Cc2ccc(O)cc2)cc1 [BPF, 4,4′-dihydroxydiphenyl methane]
Result: 4.97
